biological target: T1, recombinant human heat shock cognate 71 kDa protein (Hsc70) (human, UniProt P11142 1-646, limits assumed); experiment: SEC of peptide-Hsc70 mixture; peptide:Hsc70 molar ratio 2:1
T1 construct: also called rhHsc70; human Hsc70
T1 sequence (P11142 whole entry): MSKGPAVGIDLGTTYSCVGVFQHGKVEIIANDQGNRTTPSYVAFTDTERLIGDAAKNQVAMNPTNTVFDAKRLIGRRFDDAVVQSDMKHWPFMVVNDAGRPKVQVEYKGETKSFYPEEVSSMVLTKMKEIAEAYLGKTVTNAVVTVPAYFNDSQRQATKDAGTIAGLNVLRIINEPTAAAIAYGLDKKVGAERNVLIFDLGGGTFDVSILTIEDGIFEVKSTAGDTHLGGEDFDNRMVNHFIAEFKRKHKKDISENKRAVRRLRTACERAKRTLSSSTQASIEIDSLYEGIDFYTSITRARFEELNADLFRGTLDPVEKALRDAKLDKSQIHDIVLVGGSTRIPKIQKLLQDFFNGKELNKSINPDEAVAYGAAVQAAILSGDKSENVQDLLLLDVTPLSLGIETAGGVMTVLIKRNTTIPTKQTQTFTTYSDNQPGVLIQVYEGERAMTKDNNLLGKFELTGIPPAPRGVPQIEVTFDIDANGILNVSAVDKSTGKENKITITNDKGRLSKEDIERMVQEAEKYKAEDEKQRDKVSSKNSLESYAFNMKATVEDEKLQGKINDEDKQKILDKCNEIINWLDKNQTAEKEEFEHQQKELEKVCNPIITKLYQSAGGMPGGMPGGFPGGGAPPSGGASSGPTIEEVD
Please go through the items and note down their Percent complexation with Hsc70.
Express it in %; write the number only.

Query Percent complexation with Hsc70 for FFRKNWLKLKW (Synthetic peptide) [PEP055]
83.7

Query Percent complexation with Hsc70 for FFRKNRLLLTG (Synthetic peptide) [PEP002]
64.8

Query Percent complexation with Hsc70 for FFRKQWLRLTW (Synthetic peptide) [PEP014]
88.1

Query Percent complexation with Hsc70 for FFRKNWLRLKW (Synthetic peptide) [PEP011]
87.8

Query Percent complexation with Hsc70 for FFRKFWLRLTW (Synthetic peptide) [PEP008]
79.1

Query Percent complexation with Hsc70 for FFRKNWLKLRW (Synthetic peptide) [PEP057]
82.8

Query Percent complexation with Hsc70 for FFRKNLLRWTG (Synthetic peptide) [PEP004]
62.5

Query Percent complexation with Hsc70 for FFRKNWLRLTW (Synthetic peptide) [PEP006]
88.3

Query Percent complexation with Hsc70 for FFRKNLLRLTG (Synthetic peptide) [PEP001]
82.5

Query Percent complexation with Hsc70 for FRNWLRLTW (Synthetic peptide) [PEP028]
84.1

Query Percent complexation with Hsc70 for FFRKNWLKLTW (Synthetic peptide) [PEP012]
86.2
